# experimental.target: Human immunodeficiency virus type 1 integrase (Human immunodeficiency virus 1, UniProt Q7ZJM1)
# Sequence (Q7ZJM1 whole entry): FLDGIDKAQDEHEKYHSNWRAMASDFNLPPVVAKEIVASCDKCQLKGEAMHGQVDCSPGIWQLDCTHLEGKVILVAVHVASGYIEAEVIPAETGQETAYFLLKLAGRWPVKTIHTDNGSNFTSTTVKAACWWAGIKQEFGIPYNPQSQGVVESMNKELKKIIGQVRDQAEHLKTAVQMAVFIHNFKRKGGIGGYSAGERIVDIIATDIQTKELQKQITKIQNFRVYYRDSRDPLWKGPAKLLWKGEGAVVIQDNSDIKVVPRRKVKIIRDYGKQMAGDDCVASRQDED
# test.details: Inhibition of recombinant HIV1 integrase 3^-end processing and strand transfer activity after 1 hr
property.measured: pIC50
Give only the number. pIC50 is defined as minus log10 of concentration in molar units.

Consider the following illustrative entries.
{"compound": "Nc1ccn([C@H]2C[C@H](OP(=O)(O)OC[C@H]3O[C@@H](n4cnc5c(N)ncnc54)C[C@@H]3OP(=O)(O)O)[C@@H](COP(=O)(O)SCCCCCC(=O)Nc3cccc4c3C(=O)c3ccccc3C4=O)O2)c(=O)n1", "pIC50": 4.86}
{"compound": "Nc1ccn([C@H]2C[C@H](OP(=O)(S)O[C@H]3C[C@H](n4cnc5c(N)ncnc54)O[C@@H]3CO)[C@@H](CO)O2)c(=O)n1 (some centres not stated)", "pIC50": 3.96}

**Q:** Using the record for Nc1ccn([C@H]2C[C@H](OP(=O)(O)OC[C@H]3O[C@@H](n4cnc5c(N)ncnc54)C[C@@H]3OP(=O)(O)O)[C@@H](COP(=O)(O)OCCCCCCNC(=O)c3ccc4c(c3)C(=O)c3cc(C(=O)NCCCCCCO)ccc3C4=O)O2)c(=O)n1 (stereo in doubt; 29) , report its pIC50.
**A:** 4.18

----------
Measured pIC50, listed per entry for reference.
# experimental.target: Human immunodeficiency virus type 1 integrase (Human immunodeficiency virus 1)
# test.details: Inhibition of recombinant HIV1 integrase 3^-end processing and strand transfer activity after 1 hr
# log scale: pIC50 equals minus log10 of the concentration in mol/L

{"compound": "Nc1ccn([C@H]2C[C@H](OP(=O)(O)OC[C@H]3O[C@@H](n4cnc5c(N)ncnc54)C[C@@H]3O)[C@@H](CO)O2)c(=O)n1", "property.measured": "pIC50", "readout.number": 3.47}
{"compound": "N=C(N)NCCCCNP(=O)(OC[C@H]1O[C@@H](n2ccc(N)nc2=O)C[C@@H]1O)OC[C@H]1O[C@@H](n2cnc3c(N)ncnc32)C[C@@H]1O (stereo partly specified)", "property.measured": "pIC50", "readout.number": 4.00}

Now examine the next entry.
**Q:** Requested read-out: pIC50. Entry: NCCCCNP(=O)(OC[C@H]1O[C@@H](n2ccc(N)nc2=O)C[C@@H]1O)OC[C@H]1O[C@@H](n2cnc3c(N)ncnc32)C[C@@H]1O (stereo partly specified)
**A:** 3.99

----------
# experimental.target: Human immunodeficiency virus type 1 integrase (Human immunodeficiency virus 1, UniProt Q7ZJM1)
# test.details: Inhibition of recombinant HIV1 integrase 3^-end processing and strand transfer activity after 1 hr
property.measured: IC50

{"compound": "N=C(N)NCCCCNP(=O)(OC[C@H]1O[C@@H](n2cnc3c(N)ncnc32)C[C@@H]1O)O[C@H]1C[C@H](n2ccc(N)nc2=O)O[C@@H]1CO (some centres undefined)", "result": "≥ 340 µM"}
{"compound": "COc1ccc2nc3cc(Cl)ccc3c(NCCC[N+](C)(C)CCCSP(=O)(O)OC[C@H]3O[C@@H](n4ccc(N)nc4=O)C[C@@H]3OP(=O)([O-])OC[C@H]3O[C@@H](n4cnc5c(N)ncnc54)C[C@@H]3OP(=O)(O)O)c2c1", "result": "> 100 µM"}
{"compound": "Nc1ccn([C@H]2C[C@H](OP(=O)(O)OC[C@H]3O[C@@H](n4cnc5c(N)ncnc54)C[C@@H]3OP(=O)(O)NCCCO)[C@@H](COP(=O)(O)O)O2)c(=O)n1", "result": "> 100 µM"}

Continue with the compound presented below.
**Q:** # lookup: IC50 of Nc1ccn([C@H]2C[C@H](OP(=O)(O)O[C@H]3C[C@H](n4cnc5c(N)ncnc54)O[C@@H]3CO)[C@@H](CO)O2)c(=O)n1
**A:** ≥ 340 µM

----------
Each entry below lists one item and its recorded pIC50 value.
# experimental.target: Human immunodeficiency virus type 1 integrase (Human immunodeficiency virus 1, UniProt Q7ZJM1)
# test.details: Inhibition of recombinant HIV1 integrase 3^-end processing and strand transfer activity after 1 hr
pIC50: −log10 of the molar value.

**Q:** Could you tell me which pIC50 is on file for COc1ccc2nc3cc(Cl)ccc3c(NCCCCCCSP(=O)(O)O[C@H]3C[C@H](n4cnc5c(N)ncnc54)O[C@@H]3COP(=O)(O)O[C@H]3C[C@H](n4ccc(N)nc4=O)O[C@@H]3COP(=O)(O)O)c2c1 ?
**A:** < 4.00

**Q:** Dear colleague, I am looking for the recorded pIC50 of the following compound: Nc1ccn([C@@H]2C[C@@H](O)[C@H](COP(=O)(O)O[C@@H]3C[C@@H](n4cnc5c(N)ncnc54)O[C@H]3CO)O2)c(=O)n1
**A:** ≤ 3.47

**Q:** Look at this compound and give its reported pIC50. NCCCCCNc1ccn([C@H]2C[C@H](OP(=O)(O)OC[C@H]3O[C@@H](n4cnc5c(N)ncnc54)C[C@@H]3O)[C@@H](CO)O2)c(=O)n1
**A:** < 3.47
